# System: Coagulation factor X (Homo sapiens, UniProt P00742)
# Sequence (P00742 41-179 limits assumed): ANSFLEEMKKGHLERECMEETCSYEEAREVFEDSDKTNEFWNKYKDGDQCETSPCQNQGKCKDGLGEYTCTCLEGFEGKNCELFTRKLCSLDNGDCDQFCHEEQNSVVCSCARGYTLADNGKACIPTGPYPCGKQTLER
# Sequence (P00742 235-488 limits assumed): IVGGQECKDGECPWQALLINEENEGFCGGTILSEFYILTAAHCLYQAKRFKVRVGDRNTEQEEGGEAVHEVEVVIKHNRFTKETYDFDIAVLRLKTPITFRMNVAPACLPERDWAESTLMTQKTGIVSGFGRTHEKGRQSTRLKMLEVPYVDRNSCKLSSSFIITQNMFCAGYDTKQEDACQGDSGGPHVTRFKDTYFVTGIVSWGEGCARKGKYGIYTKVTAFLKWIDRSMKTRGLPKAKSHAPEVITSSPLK
Measure: Ki (nM)
Express it in nM; write the number only.

Observe how each entry below is paired with its result.
# Query Smiles, Ki, nM
rows = [
    ("COC(=O)[C@H](Cc1cccc(C(=N)N)c1)[C@@H](CC1CCCCC1)NC(=O)c1ccc(-c2cccc(CN)c2)cc1", 4),
    ("COC(=O)[C@H](Cc1cccc(C(=N)N)c1)[C@@H](C)NC(=O)c1ccc(-c2cccc(CN(C)C)c2)cc1", 1),
    ("COC(=O)[C@H](Cc1cccc(C(=N)N)c1)[C@H](NC(=O)c1ccc(-c2cccc(CN)c2)cc1)C(C)C", 8),
]

Query `COC(=O)[C@@H](CNC(=O)c1ccc(-c2ccccc2)cc1)Cc1cccc(C(=N)N)c1` on Coagulation factor X (Homo sapiens, UniProt P00742); Ki returned: 20

====

# System: Prothrombin (Homo sapiens)
# Measurement Protocol: In vitro inhibitory activity against human Coagulation factor IIa
Measure: pKi
On this scale, pKi is minus log10 of a concentration expressed in M (mol/L).

# Query Smiles, Measure, Test Result
data = [
    ("COC(=O)[C@H](Cc1cccc(C(=N)N)c1)[C@@H](Cc1ccccc1)NC(=O)c1ccc(-c2ccccc2)cc1", "pKi", 6.15),
]

Query `COC(=O)[C@H](Cc1cccc(C(=N)N)c1)[C@@H](CCc1ccccc1)NC(=O)c1ccc(-c2ccccc2)cc1` on Prothrombin (Homo sapiens); pKi returned: 6.09

Query `CC[C@@H](NC(=O)c1ccc(-c2cccc(CN)c2)cc1)[C@@H](Cc1cccc(C(=N)N)c1)C(=O)OC` on Prothrombin (Homo sapiens); pKi returned: 5.68

Query `COC(=O)[C@H](Cc1cccc(C(=N)N)c1)[C@@H](/C=C/c1ccccc1)NC(=O)c1ccc(-c2ccccc2)cc1` on Prothrombin (Homo sapiens); pKi returned: 6.02

====

# System: Serine protease 1 (Homo sapiens, UniProt P07477)
# Sequence (P07477 whole entry): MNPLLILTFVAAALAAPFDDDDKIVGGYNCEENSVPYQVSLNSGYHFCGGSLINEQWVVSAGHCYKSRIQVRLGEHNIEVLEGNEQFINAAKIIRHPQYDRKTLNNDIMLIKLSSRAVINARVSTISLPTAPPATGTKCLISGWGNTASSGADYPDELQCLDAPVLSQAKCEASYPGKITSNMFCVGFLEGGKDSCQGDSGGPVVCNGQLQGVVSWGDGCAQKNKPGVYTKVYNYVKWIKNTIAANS
Measure: pKi
On this scale, pKi is minus log10 of a concentration expressed in M (mol/L).

# Query Smiles, pKi
data = [
    ("COC(=O)[C@H](Cc1cccc(C(=N)N)c1)[C@@H](C)NC(=O)c1ccc(-c2ccc(C(N)=O)cc2)cc1", 7.38),
    ("COC(=O)[C@H](Cc1cccc(C(=N)N)c1)[C@@H](CC1CCCCC1)NC(=O)c1ccc(-c2cccc(CN)c2)cc1", 7.44),
    ("COC(=O)[C@H](Cc1cccc(C(=N)N)c1)[C@@H](C)NC(=O)c1ccc(-c2ccccc2)cc1", 7.16),
]

Query `COC(=O)[C@H](Cc1cccc(C(=N)N)c1)[C@@H](Cc1ccccc1)NC(=O)c1ccc(-c2ccccc2)cc1` on Serine protease 1 (Homo sapiens, UniProt P07477); pKi returned: 7.12

Query `COC(=O)[C@H](Cc1cccc(C(=N)N)c1)[C@@H](C)NC(=O)c1ccc(-c2cccc(CN(C)C)c2)cc1` on Serine protease 1 (Homo sapiens, UniProt P07477); pKi returned: 7.02
